biological target: Axl (Homo sapiens); construct: endogenous in cells; host or cells: HeLa cells; assay: Phospho-Akt in-cell Western assay; type: cell-based; details: Table 7, formula (V); Hela cells, Axl antibody cross-linking stimulation, phospho-Akt readout
Sequence (P30530 26-894): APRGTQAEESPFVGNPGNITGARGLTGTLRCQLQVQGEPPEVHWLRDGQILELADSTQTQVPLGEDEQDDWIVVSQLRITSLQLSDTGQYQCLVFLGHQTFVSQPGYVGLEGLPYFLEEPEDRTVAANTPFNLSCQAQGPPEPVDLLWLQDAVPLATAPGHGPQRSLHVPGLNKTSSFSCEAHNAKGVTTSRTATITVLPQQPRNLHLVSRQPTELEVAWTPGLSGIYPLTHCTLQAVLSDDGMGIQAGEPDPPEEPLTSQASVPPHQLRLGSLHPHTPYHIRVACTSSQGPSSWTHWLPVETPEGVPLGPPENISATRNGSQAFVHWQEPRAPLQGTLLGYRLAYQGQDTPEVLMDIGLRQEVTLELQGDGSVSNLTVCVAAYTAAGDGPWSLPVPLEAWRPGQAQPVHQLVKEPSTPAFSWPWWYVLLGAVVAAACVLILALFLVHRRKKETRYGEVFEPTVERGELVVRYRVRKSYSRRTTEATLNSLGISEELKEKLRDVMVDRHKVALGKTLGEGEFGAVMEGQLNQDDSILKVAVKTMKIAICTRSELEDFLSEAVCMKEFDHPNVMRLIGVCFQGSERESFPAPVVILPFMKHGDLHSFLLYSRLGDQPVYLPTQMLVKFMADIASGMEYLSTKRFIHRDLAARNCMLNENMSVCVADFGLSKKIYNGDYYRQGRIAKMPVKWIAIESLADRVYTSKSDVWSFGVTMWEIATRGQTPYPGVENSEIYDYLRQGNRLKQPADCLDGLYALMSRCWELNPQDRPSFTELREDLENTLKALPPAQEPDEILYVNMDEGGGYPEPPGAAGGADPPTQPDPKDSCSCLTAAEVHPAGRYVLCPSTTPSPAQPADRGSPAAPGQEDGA
pIC50: −log10 of the molar value.
Value Kind: pIC50

1. Cc1cccc(-c2nnc(-n3nc(Nc4ccc(N5CCN(CC6CC6)[C@@H](C)C5)nc4)nc3N)c3c2C2CCC3CC2)c1: 5.00 to 6.00
2. C[C@H]1CN(c2ccc(Nc3nc(N)n(-c4nnc(-c5ccccc5)c5c4C4CCC5CC4)n3)cn2)CCN1CC1CC1: 5.00 to 6.00
3. C[C@H]1CN(c2ccc(Nc3nc(N)n(-c4nnc(-c5ccncc5)c5c4C4CCC5CC4)n3)cn2)CCN1CC1CC1: 5.00 to 6.00
4. C[C@H]1CN(c2ccc(Nc3nc(N)n(-c4nnc(Cl)c5c4C4CCC5CC4)n3)cn2)CCN1CC1CC1: > 6.00

Lab note: next molecule to report on.
Req: Give a short answer stating reported pIC50 for C[C@H]1CN(c2ccc(Nc3nc(N)n(-c4nnc(-c5ccccc5Cl)c5c4C4CCC5CC4)n3)cn2)CCN1CC1CC1 .
Resp: > 6.00
